Molecular target: T1, polypeptide GC3pep (human)
T1 construct: also called membrane proximal polypeptide GC3pep
T1 peptide: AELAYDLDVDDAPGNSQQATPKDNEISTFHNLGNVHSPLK
Assay: ELISA, GC3pep coated, antibody 0.001 nM
attribute-measured: OD450 nm (OD450 nm)
Your answer is read as OD450 nm, so omit the unit and give the number.

Worked cases, answers included:
F4.21.16 (antibody, human IgG1, kappa, V domains shown, human-murine chimeric antibody) VH: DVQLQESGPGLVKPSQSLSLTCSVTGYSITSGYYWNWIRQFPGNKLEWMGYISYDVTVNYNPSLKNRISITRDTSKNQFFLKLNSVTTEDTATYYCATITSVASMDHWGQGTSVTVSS VL: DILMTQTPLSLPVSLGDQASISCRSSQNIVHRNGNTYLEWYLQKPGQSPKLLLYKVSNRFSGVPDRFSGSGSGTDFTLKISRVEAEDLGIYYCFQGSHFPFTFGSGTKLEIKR: 0.04
F2.92.1 (antibody, human IgG1, kappa, V domains shown, human-murine chimeric antibody) VH: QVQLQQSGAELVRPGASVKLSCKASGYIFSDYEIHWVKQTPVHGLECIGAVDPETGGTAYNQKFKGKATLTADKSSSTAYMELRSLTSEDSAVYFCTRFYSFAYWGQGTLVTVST VL: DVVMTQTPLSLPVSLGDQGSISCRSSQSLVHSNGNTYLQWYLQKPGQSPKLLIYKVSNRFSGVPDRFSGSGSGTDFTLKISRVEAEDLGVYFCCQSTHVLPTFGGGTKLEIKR: 0.07
F1.9.19 (antibody, human IgG1, kappa, V domains shown, human-murine chimeric antibody) VH: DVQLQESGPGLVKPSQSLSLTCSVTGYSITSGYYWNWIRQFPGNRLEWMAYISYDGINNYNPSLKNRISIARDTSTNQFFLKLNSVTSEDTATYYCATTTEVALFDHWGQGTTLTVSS VL: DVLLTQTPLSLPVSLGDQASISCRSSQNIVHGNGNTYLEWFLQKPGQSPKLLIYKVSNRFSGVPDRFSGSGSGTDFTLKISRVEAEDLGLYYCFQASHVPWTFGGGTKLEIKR: 0.07
F1.92.17 (antibody, human IgG1, kappa, V domains shown, human-murine chimeric antibody) VH: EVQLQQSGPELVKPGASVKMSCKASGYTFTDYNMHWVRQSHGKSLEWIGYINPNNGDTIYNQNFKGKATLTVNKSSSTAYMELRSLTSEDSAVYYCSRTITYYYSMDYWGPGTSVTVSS VL: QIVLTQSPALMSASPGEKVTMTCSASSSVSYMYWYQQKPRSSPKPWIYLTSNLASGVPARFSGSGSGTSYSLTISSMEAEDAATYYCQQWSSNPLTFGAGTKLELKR: 0.05

Now examine the next entry.
Given the entry F4.13.7 (antibody, human IgG1, kappa, V domains shown, human-murine chimeric antibody) VH: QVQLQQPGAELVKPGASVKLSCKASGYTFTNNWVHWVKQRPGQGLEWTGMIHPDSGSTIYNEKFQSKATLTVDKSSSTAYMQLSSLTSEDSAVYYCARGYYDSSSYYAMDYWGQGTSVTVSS VL: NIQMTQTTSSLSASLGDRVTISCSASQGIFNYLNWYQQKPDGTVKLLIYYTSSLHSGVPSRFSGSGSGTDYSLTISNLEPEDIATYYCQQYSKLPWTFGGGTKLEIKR , report its measured OD450 nm.
0.08
